experiment: gradient 5% acetonitrile 3 min, to 50% in 2 min, to 85% in 15 min, held 3 min, 100 µL/min; details: column: Zorbax Extend-C18 2.1 x 50 mm; eluents: water / acetonitrile, 0.1% formic acid
PROPERTY_LABEL: RP-LC retention time (s)

>>> observed_value("COc1ccc(NC(=O)NCC23CCC=C2N(CC2CC2)C(=O)CC3)cc1 (stereo not given)")
813
>>> observed_value("CCOc1ccc(NC(=O)C2CCN(c3cc(N4CCSCC4)ncn3)CC2)cc1")
693
>>> observed_value("CCC(=O)N1CCc2cc(-c3ccc(C(=O)NCCCN4CCOCC4)cc3)ccc21")
628
>>> observed_value("O=C(NCc1ccco1)C1CC(=O)N(c2ccc3c(c2)CCN3C(=O)C2CC2)C1 (stereo not given)")
687
>>> observed_value("CC(O)(CNC(=O)c1cnc2ccccc2n1)c1ccccc1 (stereo not given)")
734

###

# maps each entry to its RP-LC retention time
assay: gradient 5% acetonitrile 3 min, to 50% in 2 min, to 85% in 15 min, held 3 min, 100 µL/min; conditions: column: Zorbax Extend-C18 2.1 x 50 mm; eluents: water / acetonitrile, 0.1% formic acid
PROPERTY_LABEL: RP-LC retention time (s)

>>> observed_value("COc1ccc(-c2nnc(CC(=O)NCCC3=CCCCC3)o2)cc1")
889
>>> observed_value("COc1cccc2c(Nc3cccc(C)c3)cc(C(=O)N3CCSCC3)nc12")
696
>>> observed_value("Cc1nn2c(CNS(=O)(=O)Cc3cc(F)cc(F)c3)c(-c3ccccc3)nc2s1")
929

###

assay: gradient 5% acetonitrile 3 min, to 50% in 2 min, to 85% in 15 min, held 3 min, 100 µL/min; settings: column: Zorbax Extend-C18 2.1 x 50 mm; eluents: water / acetonitrile, 0.1% formic acid
# maps each entry to its RP-LC retention time
PROPERTY_LABEL: RP-LC retention time (s)

>>> observed_value("CNc1nc(Nc2cc(F)ccc2F)nc2ccccc12")
675
>>> observed_value("COc1ccc(OC)c(S(=O)(=O)Cc2nc(-c3ccc(C)cc3)no2)c1")
1000
>>> observed_value("Cc1ccc(CS(=O)(=O)N2CCC(C3CCNC3)CC2)cc1C (centres undefined)")
666
>>> observed_value("C=CCNC(=O)C(=O)Nc1ccc2c(c1)N(C(=O)C(C)C)CCC2")
746
>>> observed_value("O=C(c1ccc(F)c(F)c1)N1CCN(c2cc(-c3cccs3)[nH]n2)CC1")
758
>>> observed_value("O=S(=O)(c1cccc(C(F)(F)F)c1)N1CCc2nc(-c3ccccc3)ncc2C1")
1140
>>> observed_value("CN1C(=O)c2cccc(NC(=O)C3COc4ccccc4O3)c2C1=O (centres undefined)")
913
>>> observed_value("CCC(C)(C)NC(=O)c1c(C)oc2ccn(Cc3ccc(F)cc3)c(=O)c12")
1140
>>> observed_value("O=C(Nc1ccc2c(c1)OCCO2)N1CCN(c2nc3cccnc3n(Cc3ccccc3)c2=O)CC1")
1000
>>> observed_value("Cc1noc(C)c1S(=O)(=O)N1CCC(n2c(C)cnc2-c2cccnc2)C1 (centres undefined)")
616
>>> observed_value("O=C(CSc1cc(N2CCN(c3ccccc3F)CC2)ncn1)NC1CCCC1")
963
>>> observed_value("O=C1CCN(C(=O)CC2CCCCC2)CCCOCCN1")
646
>>> observed_value("COc1ccccc1NC(=O)N1CCC2(CC1)N=C(c1ccc(Cl)cc1)C(=O)N2")
884
>>> observed_value("COc1ccc(-c2c(C)nn3c(C)c(C(=O)OC(C)C)nnc23)cc1")
1010
>>> observed_value("Cc1ccc(C2=NC3(CCN(C(=O)c4ccc(C#N)cc4)CC3)ON2)cc1")
776
>>> observed_value("Cc1csc(-c2cc(S(=O)(=O)Nc3ccc(F)cc3F)cn2CC(=O)N2CCCC2)n1")
880
>>> observed_value("Cc1ccc(NC(=O)Nc2cccc(-c3ccc(N4CCOCC4)nn3)c2)cc1")
704
>>> observed_value("CCN1CCC(CCNC(=O)C2CN(C(=O)c3cccs3)CC23CCCCC3)CC1 (centres undefined)")
625
>>> observed_value("CCOc1ccccc1-c1csc(NC(=O)c2sc(COc3cc(C)ccc3C)nc2C)n1")
1030
>>> observed_value("O=C(Nc1ccccn1)C1CCN(S(=O)(=O)c2ccc(-c3noc(C4CC4)n3)cc2)CC1")
843
>>> observed_value("COc1cc([C@H]2c3cc4c(cc3[C@@H](O)[C@H](CO)[C@H]2C(=O)Nc2cnccn2)OCO4)cc(OC)c1OC")
626
>>> observed_value("COc1ccccc1CCC(=O)N1CCC[C@@H]1C(=O)NCCc1csc(-c2ccccc2)n1")
891
>>> observed_value("COc1ccc2c(c1)C1(CCN(S(=O)(=O)c3cc(F)ccc3C)C1)C(=O)N2C (centres undefined)")
997
>>> observed_value("CSc1ccc(-c2nc3cnccn3c2Nc2cc(C)cc(C)c2)cc1")
1070
